# ASSAY TARGET: Replicase polyprotein 1ab (Severe acute respiratory syndrome coronavirus 2) (UniProt P0DTD1)
# METHOD SUMMARY: Inhibition of SARS-CoV-2 3CL-Pro proteolytic cleavage of a dual-labeled substrate by FRET.
# Format: functional
# Parameters: assay stage
# valid calls are active, inactive; nothing else

Illustrative cases are given below, each with its answer.
| MOLECULAR STRING | LABEL CLASS |
| --- | --- |
| CCCCn1c(NC(=O)c2cccs2)c(C#N)c2nc3ccccc3nc21 | inactive |
| CCN(CC)S(=O)(=O)c1cccc(-n2sc3ccccc3c2=O)c1 | active |

// param item: `C[C@H]1COC2=C1C(=O)C(=O)c1c2ccc2c1CCCC2(C)C` ; yields the recorded call
inactive

// param item: `O=C(O)C1=CC(=C(c2ccc(O)c(C(=O)O)c2)c2ccc(O)c(C(=O)O)c2)C=CC1=O` ; yields the recorded call
inactive

// param item: `CC1=CC(=O)c2ccccc2C1=O` ; yields the recorded call
inactive
